Recorded viscosity, one value per entry.
Method Description: xn = mol fraction of the nth substance listed
Settings: 308.15 K; 100 kPa; x1 = 1.442e-05; x2 = 0
± gives the uncertainty stated by the source.

# count of solved cases: 3
Molecule: CCCCCCCCCCCCCCCC[N+](C)(C)C.[Br-] + OC[C@H]1O[C@H](O[C@H]2[C@H](O)[C@@H](O)C(O)O[C@@H]2CO)[C@H](O)[C@@H](O)[C@@H]1O + O
viscosity: 0.744 ± 0.061 mPa·s

Molecule: CCCCCCCCCCCCCCCC[N+](C)(C)C.[Br-] + OC[C@@H](O)[C@H](O)[C@@H](O)CO + O
viscosity: 0.744 ± 0.06 mPa·s

Molecule: CCCCCCCCCCCCCCCC[N+](C)(C)C.[Br-] + OC1OC[C@@H](O)[C@H](O)[C@H]1O + O
viscosity: 0.744 ± 0.06 mPa·s

Turning now to a further record.
Endpoint output: viscosity of CCCCCCCCCCCCCCCC[N+](C)(C)C.[Br-] + O=C(CO)[C@@H](O)[C@H](O)[C@@H](O)CO + O . Value?
0.744 ± 0.06 mPa·s

---

Method Description: xn = mol fraction of the nth substance listed
Settings: 318.15 K; 100 kPa; x1 = 7.21e-06; x2 = 0
Quantity Measured: viscosity (mPa·s)
Give a bare numeral; the unit mPa·s is implied.

Molecule: CCCCCCCCCCCCCCCC[N+](C)(C)C.[Br-] + OC[C@@H](O)[C@H](O)[C@@H](O)CO + O
viscosity (mPa·s): 0.617
//
Molecule: CCCCCCCCCCCCCCCC[N+](C)(C)C.[Br-] + OC[C@H]1O[C@H](O[C@H]2[C@H](O)[C@@H](O)C(O)O[C@@H]2CO)[C@H](O)[C@@H](O)[C@@H]1O + O
viscosity (mPa·s): 0.617
//
Molecule: CCCCCCCCCCCCCCCC[N+](C)(C)C.[Br-] + O=C(CO)[C@@H](O)[C@H](O)[C@@H](O)CO + O
viscosity (mPa·s): 0.617

Endpoint output: viscosity of CCCCCCCCCCCCCCCC[N+](C)(C)C.[Br-] + OC1OC[C@@H](O)[C@H](O)[C@H]1O + O . Value?
0.617

---

Method Description: xn = mol fraction of the nth substance listed
Settings: 298.15 K; 100 kPa; x1 = 1.442e-05; x2 = 0
Quantity Measured: viscosity (mPa·s)
Give a bare numeral; the unit mPa·s is implied.

# count of solved cases: 3
Compound: CCCCCCCCCCCCCCCC[N+](C)(C)C.[Br-] + O=C(CO)[C@@H](O)[C@H](O)[C@@H](O)CO + O
Units Text: mPa·s
viscosity: 0.898

Compound: CCCCCCCCCCCCCCCC[N+](C)(C)C.[Br-] + OC1OC[C@@H](O)[C@H](O)[C@H]1O + O
Units Text: mPa·s
viscosity: 0.898

Compound: CCCCCCCCCCCCCCCC[N+](C)(C)C.[Br-] + OC[C@@H](O)[C@H](O)[C@@H](O)CO + O
Units Text: mPa·s
viscosity: 0.898

Turning now to a further record.
Endpoint output: viscosity of CCCCCCCCCCCCCCCC[N+](C)(C)C.[Br-] + OC[C@H]1O[C@H](O[C@H]2[C@H](O)[C@@H](O)C(O)O[C@@H]2CO)[C@H](O)[C@@H](O)[C@@H]1O + O . Value?
0.898

---

Method Description: xn = mol fraction of the nth substance listed
Settings: 308.15 K; 101 kPa; x2 = 0; x1 = 9e-07
Recorded electrical conductivity, one value per entry.
Give a bare numeral; the unit S/m is implied.

# count of solved cases: 3
Compound: CCCCCCCCCCCCCCCC[n+]1ccccc1.[Cl-] + C[C@@H](O)[C@H](N)C(=O)O + O
Obs Value: 0.00029
--
Compound: CCCCCCCCCCCCCCCC[n+]1ccccc1.[Cl-] + C[C@H](N)C(=O)O + O
Obs Value: 0.00029
--
Compound: CCCCCCCCCCCCCCCC[n+]1ccccc1.[Cl-] + NCC(=O)O + O
Obs Value: 0.00029

Turning now to a further record.
Endpoint output: electrical conductivity of Cc1ncc(C[n+]2csc(CCO)c2C)c(N)n1.Cl.[Cl-] + CCCCCCCCCCCCOS(=O)(=O)[O-].[Na+] + O . Value?
0.00544
